Test system: NOMO1
Assay: cell viability relative to DMSO control; higher = less cytotoxic
Conditions: RPMI 5 mM glucose + 10% dialyzed FBS; 48 h; 0.00234 µM
ASSAY READOUT: cell viability

As a guide, the following entries are already answered.
| MOLECULE | RECORDED VALUE |
| --- | --- |
| CC(=O)N[C@@H]1[C@@H](NC(N)=N)\C=C(/O[C@H]1[C@H](O)[C@H](O)CO)C(O)=O | 106% |
| N#C/C(=C\c1ccc(O)c(O)c1)C(=O)NCc1ccccc1 | 103% |
| O=C(CC12CC3CC(CC(C3)C1)C2)Nc1cccc2nc(NCCNCCO)ccc12 | 90.7% |
| CCOc1cc2ncc(C#N)c(Nc3ccc(OCc4ccccn4)c(Cl)c3)c2cc1NC(=O)/C=C/CN(C)C | 111% |
| CCC(C)N1\N=C/N(C1=O)C2=CC=C(C=C2)N3CCN(CC3)C4=CC=C(OC[C@H]5CO[C@@](C[N]6C=NC=N6)(O5)C7=CC=C(Cl)C=C7Cl)C=C4 (stereo not given in full) | 104% |
| OC[C@H]1O[C@H](C[C@@H]1O)N2\C=C(F)/C(=O)NC2=O | 119% |

Exercise: Please report the recorded cell viability for CC[C@]12CC[C@H]3[C@@H](CCC/4=C/C(=O)CC[C@H]34)[C@@H]1CC[C@@]2(O)C#C .
Solution: 77.5%

Exercise: Moving on to the next molecule: COc1cc(Nc2c(C#N)cnc3cc(OCCCN4CCN(C)CC4)c(OC)cc23)c(Cl)cc1Cl
Solution: 105%

Exercise: Moving on to the next molecule: O=C([O-])C[C@H](O)C[C@H](O)/C=C/c1c(C2CC2)nc2ccccc2c1-c1ccc(F)cc1
Solution: 109%

Exercise: Moving on to the next molecule: COc1cc([C@@H](CC(=O)O)c2ccc(C)c(CN3C[C@@H](C)Oc4ccccc4[S+]3(=O)[O-])c2)cc2nnn(C)c12
Solution: 118%
